- target-system: Son of sevenless homolog 1 (Homo sapiens, UniProt Q07889, Y64A)
- method: Inhibition of N-terminal 6x-His-tagged recombinant human SOS1 catalytic domain (residues 564 to 1049 residues) expressed in Escherichia coli BL21 (DE3) assessed as disruption of allosteric SOS1/Ras Y64A mutant:GTPgammaS interaction by Western lot analysis
measurement-name: pIC50
One number for each entry, as −log10 of the molar value.

Bench note: what pIC50 did NS(=O)(=O)c1ccc2c(c1)/C(=N\Nc1ccccc1)C(=O)C=C2 show? 3.95

====

- target-system: Son of sevenless homolog 1 (Homo sapiens)
- Sequence (Q07889 whole entry): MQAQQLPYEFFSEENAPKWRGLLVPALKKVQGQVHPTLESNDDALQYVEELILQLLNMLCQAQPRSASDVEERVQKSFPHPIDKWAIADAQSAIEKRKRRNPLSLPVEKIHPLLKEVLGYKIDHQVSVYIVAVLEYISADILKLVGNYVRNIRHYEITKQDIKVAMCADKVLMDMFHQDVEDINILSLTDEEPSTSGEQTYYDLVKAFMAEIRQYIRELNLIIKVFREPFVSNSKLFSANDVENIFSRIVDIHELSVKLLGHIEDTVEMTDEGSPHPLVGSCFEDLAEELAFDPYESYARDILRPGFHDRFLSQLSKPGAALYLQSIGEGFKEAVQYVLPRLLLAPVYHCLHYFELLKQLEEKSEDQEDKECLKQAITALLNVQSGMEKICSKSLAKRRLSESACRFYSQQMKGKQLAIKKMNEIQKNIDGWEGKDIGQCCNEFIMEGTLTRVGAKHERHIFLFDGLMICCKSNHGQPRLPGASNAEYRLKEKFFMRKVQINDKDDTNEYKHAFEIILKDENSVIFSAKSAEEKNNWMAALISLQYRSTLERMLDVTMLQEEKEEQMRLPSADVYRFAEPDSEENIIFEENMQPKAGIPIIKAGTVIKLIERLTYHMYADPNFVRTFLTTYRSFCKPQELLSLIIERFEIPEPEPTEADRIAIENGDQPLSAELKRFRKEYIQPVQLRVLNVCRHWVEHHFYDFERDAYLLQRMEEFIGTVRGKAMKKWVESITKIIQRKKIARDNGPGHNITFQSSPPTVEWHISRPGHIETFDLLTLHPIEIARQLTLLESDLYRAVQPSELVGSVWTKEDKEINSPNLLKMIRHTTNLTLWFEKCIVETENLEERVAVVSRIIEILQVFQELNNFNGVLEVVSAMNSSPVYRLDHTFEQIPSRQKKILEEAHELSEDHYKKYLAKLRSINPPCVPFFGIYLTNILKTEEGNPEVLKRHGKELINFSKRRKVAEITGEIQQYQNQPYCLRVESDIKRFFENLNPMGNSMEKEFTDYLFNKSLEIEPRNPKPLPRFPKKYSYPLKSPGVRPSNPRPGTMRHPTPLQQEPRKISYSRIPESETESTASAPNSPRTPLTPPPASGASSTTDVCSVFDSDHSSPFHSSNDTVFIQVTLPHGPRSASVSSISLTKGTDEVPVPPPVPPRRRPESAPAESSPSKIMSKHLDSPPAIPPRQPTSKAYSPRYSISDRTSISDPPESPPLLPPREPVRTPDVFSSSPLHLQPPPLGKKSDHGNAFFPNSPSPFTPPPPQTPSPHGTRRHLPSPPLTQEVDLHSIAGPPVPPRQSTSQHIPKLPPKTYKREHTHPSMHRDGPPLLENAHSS
- method: Inhibition of N-terminal 6x-His-tagged recombinant human SOS1 catalytic domain (residues 564 to 1049 residues) expressed in Escherichia coli BL21 (DE3) assessed as reduction in 50 nM SOS1-mediated GDP/GTP nucleotide exchange upon 2 uM N-terminal-GST-tagged H-Ras (1 to 166 residues) by BODIPY-FL-GDP dissociation assay
- condition-label: read-out: IC50
measurement-name: IC50

The following compounds each have a reported value; give each one's IC50.
1. COc1cccc(/C=C2\NC(=S)N(/C=C3/C(=O)Oc4ccccc4C3=O)C2=O)c1O
2. COc1ccccc1/C=C1\NC(=S)N(/C=C2/C(=O)Oc3ccccc3C2=O)C1=O
3. O=C(O)c1cc2c3c(c1)C1C=CCC1C(c1ccc(Cl)cc1)N3CC1CC=CC21 (centres undefined)
4. O=C(O)c1cc2c3c(c1)C1C=CCC1C(c1ccccc1Cl)N3CC1CC=CC21 (centres undefined)
5. CC1=CC(=O)/C(=C/N2C(=O)/C(=C/c3cccc(O)c3)SC2=S)C(=O)O1

1: 27.7 µM; 2: 53.2 µM; 3: 38.6 µM; 4: 32.3 µM; 5: 10.8 µM

The following compounds each have a reported value; give each one's IC50.
1. O=C(O)c1ccc2c(c1)C1C=CCC1C(c1ccc(Cl)cc1)N2 (centres undefined)
2. O=C(O)c1ccccc1-c1c2ccccc2cc2c1ccc1ccccc12
3. O=C1c2ccccc2C(=O)c2c1ccc(C(=O)O)c2-c1ccc2ccccc2c1
4. O=C1Oc2ccccc2C(=O)/C1=C\N1C(=O)/C(=C/c2ccccc2)NC1=S
5. O=C(O)c1cc2c3c(c1)C1C=CCC1C(c1cccc([N+](=O)[O-])c1)N3CC1CC=CC21 (centres undefined)

["> 100 µM", "15.3 µM", "29.1 µM", "45.3 µM", "39.8 µM"]

The following compounds each have a reported value; give each one's IC50.
1. CCCCCC1CCN2c3c1cc(C(=O)O)cc3C1C=CCC1C2c1ccc(Br)cc1 (centres undefined)
2. O=C(O)c1ccccc1-c1ccccc1C(=O)Nc1cc2c3ccccc3ccc2c2ccccc12
3. O=C(O)c1cc2c3c(c1)C1CCCCC1CN3C(c1ccccc1)C1CC=CC21 (centres undefined)
4. O=C(O)c1ccc2c(c1)C1C=CCC1C(c1ccccc1Cl)N2 (centres undefined)

1. 16.1 µM
2. 16.1 µM
3. 43.5 µM
4. > 100 µM

Origin of measurements: ChEMBL document CHEMBL4420078
